- experiment-summary: Cmax in Sprague-Dawley rat at 5 mg/kg, iv after 24 hrs by LC/MS/MS analysis
- Type: ADME, organism-based
- Design: dose 5 mg/kg, route intravenous
- run-parameters: in vivo
endpoint: Cmax

>  <structure-smiles>
CN(C/C=C/c1ccc(-c2ccccc2)cc1)Cc1ccc2c(c1)CCO2.Cl

>  <endpoint-result>
2040 ng/mL

$$$$

* * *

- experiment-summary: Cmax in Sprague-Dawley rat at 10 mg/kg, po after 24 hrs by LC/MS/MS analysis
- Format: ADME, organism-based
- Parameters: dose 10 mg/kg, route oral
- run-parameters: in vivo
endpoint: Cmax (ng/mL)

>  <structure-smiles>
CN(C/C=C/c1ccc(-c2ccccc2)cc1)Cc1ccc2c(c1)CCO2.Cl

>  <endpoint-result>
41.8

$$$$

* * *

- experiment-summary: Mean residence time (0 to t) in Sprague-Dawley rat at 5 mg/kg, iv after 24 hrs by LC/MS/MS analysis
- Format: ADME, organism-based
- run-parameters: in vivo

>  <structure-smiles>
CN(C/C=C/c1ccc(-c2ccccc2)cc1)Cc1ccc2c(c1)CCO2.Cl

>  <MRT last at 24 h (min)>
54

$$$$

* * *

- experiment-summary: Half life in Sprague-Dawley rat at 10 mg/kg, po after 24 hrs by LC/MS/MS analysis
- Type: ADME, organism-based
- run-parameters: in vivo

>  <structure-smiles>
CN(C/C=C/c1ccc(-c2ccccc2)cc1)Cc1ccc2c(c1)CCO2.Cl

>  <half-life, h>
1.7

$$$$

* * *

- experiment-summary: AUC (0 to t) in Sprague-Dawley rat at 10 mg/kg, po after 24 hrs by LC/MS/MS analysis
- Assay type: ADME, organism-based
- Design: dose 10 mg/kg, time < 24 hr, route oral
- run-parameters: in vivo

>  <structure-smiles>
CN(C/C=C/c1ccc(-c2ccccc2)cc1)Cc1ccc2c(c1)CCO2.Cl

>  <AUC(0-t) at 24 h / ng·h/mL>
156

$$$$

* * *

- experiment-summary: Mean residence time (0 to infinity) in Sprague-Dawley rat at 10 mg/kg, po after 24 hrs by LC/MS/MS analysis
- Assay type: ADME, organism-based
- run-parameters: in vivo
endpoint: MRT inf (h)

>  <structure-smiles>
CN(C/C=C/c1ccc(-c2ccccc2)cc1)Cc1ccc2c(c1)CCO2.Cl

>  <endpoint-result>
3.28

$$$$

* * *

- experiment-summary: Half life in Sprague-Dawley rat at 5 mg/kg, iv after 24 hrs by LC/MS/MS analysis
- Assay type: ADME, organism-based
- run-parameters: in vivo

>  <structure-smiles>
CN(C/C=C/c1ccc(-c2ccccc2)cc1)Cc1ccc2c(c1)CCO2.Cl

>  <half-life [h]>
2.27

$$$$

* * *

- experiment-summary: AUC (0 to t) in Sprague-Dawley rat at 5 mg/kg, iv after 24 hrs by LC/MS/MS analysis
- Type: ADME, organism-based
- Design: dose 5 mg/kg, time < 24 hr, route intravenous
- run-parameters: in vivo

>  <structure-smiles>
CN(C/C=C/c1ccc(-c2ccccc2)cc1)Cc1ccc2c(c1)CCO2.Cl

>  <AUC(0-t) at 24 h (ng·h/mL)>
1330

$$$$

* * *

- experiment-summary: Oral bioavailability in Sprague-Dawley rat at 10 mg/kg after 24 hrs by LC/MS/MS analysis
- Type: ADME, organism-based
- run-parameters: in vivo
endpoint: bioavailability (%)

>  <structure-smiles>
CN(C/C=C/c1ccc(-c2ccccc2)cc1)Cc1ccc2c(c1)CCO2.Cl

>  <endpoint-result>
6.5

$$$$

* * *

- experiment-summary: AUC (0 to infinity) in Sprague-Dawley rat at 5 mg/kg, iv after 24 hrs by LC/MS/MS analysis
- Format: ADME, organism-based
- Parameters: dose 5 mg/kg, time infinity, route intravenous
- run-parameters: in vivo

>  <structure-smiles>
CN(C/C=C/c1ccc(-c2ccccc2)cc1)Cc1ccc2c(c1)CCO2.Cl

>  <AUC(0-inf) / ng·h/mL>
1360

$$$$

* * *

- experiment-summary: Aqueous solubility of compound
- Type: physicochemical
Would you mind labelling by solubility? At or over 2 mg/mL is T, under is F.

>  <structure-smiles>
CN(C/C=C/C=C/c1ccc(-c2ccccc2)cc1)Cc1ccc2c(c1)OCCC2.O=C(O)C(O)C(O)C(=O)O

>  <assigned-category>
T

$$$$
>  <structure-smiles>
CN(C/C=C/C=C/c1ccc(-c2ccccc2)cc1)Cc1ccc2c(c1)OCCC2.Cl

>  <assigned-category>
T

$$$$
>  <structure-smiles>
CC(O)C(=O)O.CN(C/C=C/c1ccc(-c2ccccc2)cc1)Cc1ccc2c(c1)CCO2

>  <assigned-category>
T

$$$$
>  <structure-smiles>
CN(C/C=C/c1ccc(-c2ccccc2)cc1)Cc1ccc2c(c1)CCO2.Cl

>  <assigned-category>
T

$$$$
>  <structure-smiles>
CN(C/C=C/c1ccc(-c2ccccc2)cc1)Cc1ccc2c(c1)CCO2.O=P(O)(O)O

>  <assigned-category>
T

$$$$
>  <structure-smiles>
CN(C/C=C/c1ccc(C(F)(F)F)cc1)Cc1ccc2c(c1)OCCC2.Cl

>  <assigned-category>
T

$$$$
>  <structure-smiles>
CCOc1ccc(/C=C/CN(C)Cc2ccc3c(c2)CCO3)cc1.Cl

>  <assigned-category>
T

$$$$
>  <structure-smiles>
CN(C/C=C/C=C/c1ccc(-c2ccccc2)cc1)Cc1ccc2c(c1)OCCC2.O=C(O)CCC(=O)O

>  <assigned-category>
T

$$$$
>  <structure-smiles>
CC(O)C(=O)O.CN(C/C=C/C=C/c1ccc(-c2ccccc2)cc1)Cc1ccc2c(c1)OCCC2

>  <assigned-category>
T

$$$$
>  <structure-smiles>
CN(C/C=C/c1ccc(-c2ccccc2)cc1)Cc1ccc2c(c1)CCO2.O=S(=O)(O)O

>  <assigned-category>
F

$$$$
>  <structure-smiles>
Br.CN(C/C=C/c1ccc(-c2ccccc2)cc1)Cc1ccc2c(c1)CCO2

>  <assigned-category>
T

$$$$
>  <structure-smiles>
CN(C/C=C/c1ccc(-c2ccccc2)cc1)Cc1ccc2c(c1)CCO2.O=C(O)/C=C\C(=O)O

>  <assigned-category>
F

$$$$
>  <structure-smiles>
CN(C/C=C/c1ccc(C(F)(F)F)cc1)Cc1ccc2c(c1)CCCC2.Cl

>  <assigned-category>
F

$$$$
>  <structure-smiles>
CN(C/C=C/c1ccc(C(F)(F)F)cc1)Cc1ccc2c(c1)CCO2.Cl

>  <assigned-category>
T

$$$$
>  <structure-smiles>
CN(C/C=C/C=C/c1ccc(-c2ccccc2)cc1)Cc1ccc2c(c1)OCCC2.O=C(O)/C=C\C(=O)O

>  <assigned-category>
F

$$$$
>  <structure-smiles>
CN(C/C=C/C=C/c1ccc(-c2ccccc2)cc1)Cc1ccc2c(c1)OCCC2.O=S(=O)(O)O

>  <assigned-category>
F

$$$$
>  <structure-smiles>
CN(C/C=C/c1ccc(C(F)(F)F)cc1F)Cc1ccc2c(c1)CCO2.Cl

>  <assigned-category>
T

$$$$
>  <structure-smiles>
COc1ccc(/C=C/CN(C)Cc2ccc3c(c2)CCCC3)cc1.Cl

>  <assigned-category>
F

$$$$

* * *

# log10 solubility per record follows
- experiment-summary: Aqueous solubility of compound
- Format: physicochemical
endpoint: log10 solubility (log10 of the value in µg/mL)

>  <structure-smiles>
CN(C/C=C/C=C/c1ccc(-c2ccccc2)cc1)Cc1ccc2c(c1)OCCC2.O=C(O)CC(O)(CC(=O)O)C(=O)O

>  <log10 solubility>
3.20

$$$$
>  <structure-smiles>
CN(C/C=C/c1ccc(C(F)F)cc1)Cc1ccc2c(c1)OCCC2.Cl

>  <log10 solubility>
4.21

$$$$
>  <structure-smiles>
CN(C/C=C/c1ccc(Br)cc1)Cc1ccc2c(c1)CCCCC2.Cl

>  <log10 solubility>
2.78

$$$$
>  <structure-smiles>
CN(C/C=C/C=C/c1ccc(-c2ccccc2)cc1)Cc1ccc2c(c1)OCCC2.O=P(O)(O)O

>  <log10 solubility>
4.11

$$$$
>  <structure-smiles>
CN(C/C=C/c1ccc(Br)cc1)Cc1ccc2c(c1)CCCC2.Cl

>  <log10 solubility>
3.30

$$$$
>  <structure-smiles>
CN(C/C=C/c1ccc(Cl)cc1)Cc1ccc2c(c1)CCCCC2.Cl

>  <log10 solubility>
3.08

$$$$
>  <structure-smiles>
CN(C/C=C/c1ccc(Cl)cc1)Cc1ccc2c(c1)OCCC2.Cl

>  <log10 solubility>
4.06

$$$$
>  <structure-smiles>
CN(C/C=C/c1ccc(-c2ccccc2)cc1)Cc1ccc2c(c1)CCO2.O=C(O)C(O)C(O)C(=O)O

>  <log10 solubility>
3.76

$$$$
>  <structure-smiles>
CN(C/C=C/c1ccc(-c2ccccc2)cc1)Cc1ccc2c(c1)CCO2.O=C(O)CC(O)(CC(=O)O)C(=O)O

>  <log10 solubility>
3.36

$$$$
>  <structure-smiles>
CN(C/C=C/c1ccc(C(F)(F)F)cc1)Cc1ccc2c(c1)CCCCC2.Cl

>  <log10 solubility>
3.41

$$$$
>  <structure-smiles>
CN(C/C=C/c1ccc(-c2ccccc2)cc1)Cc1ccc2c(c1)CCO2.O=C(O)CCC(=O)O

>  <log10 solubility>
3.52

$$$$
>  <structure-smiles>
CCOc1ccc(/C=C/CN(C)Cc2ccc3c(c2)OCCC3)cc1.Cl

>  <log10 solubility>
4.01

$$$$
>  <structure-smiles>
CC(=O)O.CN(C/C=C/c1ccc(-c2ccccc2)cc1)Cc1ccc2c(c1)CCO2

>  <log10 solubility>
3.67

$$$$
>  <structure-smiles>
CN(C/C=C/c1ccc(C(F)(F)F)cc1F)Cc1ccc2c(c1)OCCC2.Cl

>  <log10 solubility>
4.18

$$$$
>  <structure-smiles>
CC(=O)O.CN(C/C=C/C=C/c1ccc(-c2ccccc2)cc1)Cc1ccc2c(c1)OCCC2

>  <log10 solubility>
3.61

$$$$
>  <structure-smiles>
Br.CN(C/C=C/C=C/c1ccc(-c2ccccc2)cc1)Cc1ccc2c(c1)OCCC2

>  <log10 solubility>
3.45

$$$$
>  <structure-smiles>
CN(C/C=C/c1ccc(-c2ccccc2)cc1)Cc1ccc2c(c1)CCO2.O=C(O)C(F)(F)F

>  <log10 solubility>
3.18

$$$$
>  <structure-smiles>
CN(C/C=C/C=C/c1ccc(-c2ccccc2)cc1)Cc1ccc2c(c1)OCCC2.O=C(O)C(F)(F)F

>  <log10 solubility>
3.23

$$$$
>  <structure-smiles>
CN(C/C=C/c1ccc(Cl)cc1)Cc1ccc2c(c1)CCCC2.Cl

>  <log10 solubility>
3.28

$$$$
